Each item that follows carries a reported pIC50.
- test-target: Recombinant STAT6 protein (STAT6 (W123-T658)) (Homo sapiens)
- Construct: Recombinant STAT6 protein (STAT6 (W123-T658))
- Sequence (P42226 123-658): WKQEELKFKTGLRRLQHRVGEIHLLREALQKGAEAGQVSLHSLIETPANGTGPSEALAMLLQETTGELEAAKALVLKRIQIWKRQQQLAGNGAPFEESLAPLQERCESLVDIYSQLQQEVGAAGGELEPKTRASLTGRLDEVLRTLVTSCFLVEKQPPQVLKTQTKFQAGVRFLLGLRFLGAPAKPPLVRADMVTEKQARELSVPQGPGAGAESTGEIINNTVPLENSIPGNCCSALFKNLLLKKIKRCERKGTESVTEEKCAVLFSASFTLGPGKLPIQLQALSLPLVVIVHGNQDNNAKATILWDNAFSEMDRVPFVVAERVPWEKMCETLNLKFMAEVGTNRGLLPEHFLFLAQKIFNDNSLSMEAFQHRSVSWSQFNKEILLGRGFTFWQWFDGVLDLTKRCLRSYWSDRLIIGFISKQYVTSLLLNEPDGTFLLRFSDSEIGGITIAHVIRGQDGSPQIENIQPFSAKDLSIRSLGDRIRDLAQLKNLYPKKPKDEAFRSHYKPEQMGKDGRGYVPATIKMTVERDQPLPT
- assay-protocol: STAT6 Fluorescence Polarization (FP) Assay
- Type: binding
- measurement-context: STAT6 (W123-T658) 250 nM, probe 5-FAM-Ap[…]-NH2 2 nM, 45-minute incubation; read-out: STAT6 (FP assay IC50 class)
pIC50: −log10 of the molar value.
metric: pIC50

>>> value_measured("O=C(N[C@H]1CCCC[C@H]2CC[C@@H](C(=O)N3CCC(c4cc[nH]c(=O)c4)C3)N2C1=O)c1ccc2ccc(C(F)(F)P(=O)(O)O)cc2c1 (stereo partly shown) [Compound 866]")
"≥ 6.52"
>>> value_measured("CN(C)c1ncncc1C1CN(C(=O)[C@@H]2CC[C@@H]3CCC[C@H](NC(=O)c4cc5cc(C(F)P(=O)(O)O)ccc5s4)C(=O)N32)C1 (stereo partly shown) [Compound 739]")
"4.52 to 5.52"
>>> value_measured("COc1ccncc1C1CN(C(=O)[C@@H]2CC[C@@H]3CCC[C@H](NC(=O)c4cc5cc(CP(=O)(O)O)ccc5s4)C(=O)N32)C1 [Compound 502]")
"4.52 to 5.52"
>>> value_measured("O=C(N[C@H]1CCCC[C@H]2CC[C@@H](C(=O)N3CCC(c4ncncc4F)CC3)N2C1=O)c1cc2cc(C(F)P(=O)(O)O)ccc2s1 (stereo partly shown) [Compound 588]")
"4.52 to 5.52"
>>> value_measured("N#C[C@@H]1[C@@H](c2cccnc2)CN(C(=O)[C@@H]2CC[C@@H]3CCC[C@H](NC(=O)c4cc5cc([C@@H](F)P(=O)(O)O)ccc5s4)C(=O)N32)C12CC2 (single isomer, unassigned) [Compound 837]")
"≥ 6.52"
>>> value_measured("Cn1ccc(N2CC[C@@H](NC(=O)[C@@H]3CC[C@@H]4CCCC[C@H](NC(=O)c5cc6cc(C(F)P(=O)(O)O)ccc6s5)C(=O)N43)C2)n1 (stereo partly shown) [Compound 533]")
"5.52 to 6.52"
>>> value_measured("N#C[C@@H]1CN(C(=O)[C@@H]2CC[C@@H]3CCCC[C@H](NC(=O)c4cc5cc([C@H](F)P(=O)(O)O)ccc5s4)C(=O)N32)C[C@H]1c1cc[nH]c(=O)c1 (single isomer, unassigned) [Compound 872]")
"≥ 6.52"
>>> value_measured("NC(=O)N1CC(NC(=O)[C@@H]2CC[C@@H]3CCCC[C@H](NC(=O)c4cc5cc(C(F)P(=O)(O)O)ccc5s4)C(=O)N32)C1 (stereo partly shown) [Compound 549]")
"4.52 to 5.52"
>>> value_measured("N#C[C@@H]1[C@@H](c2ccccc2)CN(C(=O)[C@@H]2CC[C@@H]3C[C@@H](N4CCC4)CC[C@H](NC(=O)c4cc5cc([C@H](F)P(=O)(O)O)ccc5s4)C(=O)N32)C12CC2 (single isomer, unassigned) [Compound 934]")
"≥ 6.52"
>>> value_measured("Cc1nccnc1C1CN(C(=O)[C@@H]2CC[C@@H]3CCC[C@H](NC(=O)c4cc5cc(C(F)(F)P(=O)(O)O)ccc5s4)C(=O)N32)C1 [Compound 648]")
"4.52 to 5.52"
>>> value_measured("O=C(N[C@H]1CCCC[C@H]2CC[C@@H](C(=O)NCc3cnc4[nH]ncc4c3)N2C1=O)c1cc2cc(C(F)(F)P(=O)(O)O)ccc2s1 [Compound 1108]")
"4.52 to 5.52"
>>> value_measured("O=C(N[C@H]1CCC[C@H]2CC[C@@H](C(=O)NCc3ccc4[nH]c(=O)[nH]c4c3)N2C1=O)c1cc2cc(C(F)(F)P(=O)(O)O)ccc2s1 [Compound 1117]")
"5.52 to 6.52"
>>> value_measured("Cn1cncc(C2CN(C(=O)[C@@H]3CC[C@@H]4CCC[C@H](NC(=O)c5cc6cc(C(F)P(=O)(O)O)ccc6s5)C(=O)N43)C2)c1=O (stereo partly shown) [Compound 624]")
"4.52 to 5.52"
>>> value_measured("CC1C[C@H]2CC[C@@H](C(=O)N3CC(c4cccnc4)C3)N2C(=O)[C@@H](NC(=O)c2cc3cc(C(F)(F)P(=O)(O)O)ccc3s2)C1 (stereo partly shown) [Compound 759]")
"5.52 to 6.52"
>>> value_measured("O=C(N[C@H]1CCC[C@H]2CC[C@@H](C(=O)N3CC(c4ccccc4F)C3)N2C1=O)c1cc2cc(C(F)P(=O)(O)O)ccc2s1 (stereo partly shown) [Compound 565]")
"4.52 to 5.52"
>>> value_measured("Cc1cncnc1C1CN(C(=O)[C@@H]2CC[C@@H]3CCC[C@H](NC(=O)c4cc5cc(CP(=O)(O)O)ccc5s4)C(=O)N32)C1 [Compound 650]")
"4.52 to 5.52"
>>> value_measured("CN(C)c1ccncc1C1CN(C(=O)[C@@H]2CC[C@@H]3CCC[C@H](NC(=O)c4cc5cc(CP(=O)(O)O)ccc5s4)C(=O)N32)C1 [Compound 512]")
"4.52 to 5.52"
>>> value_measured("O=C(N[C@H]1CCC[C@H]2CC[C@@H](C(=O)N3CC(c4cnccc4O)C3)N2C1=O)c1cc2cc(C(F)P(=O)(O)O)ccc2s1 (stereo partly shown) [Compound 540]")
"5.52 to 6.52"
>>> value_measured("O=C(N[C@H]1CCCC[C@H]2CC[C@@H](C(=O)N3CC(c4ccccc4)CC34CC4)N2C1=O)c1ccc2cnc(CP(=O)(O)O)cc2c1 (stereo partly shown) [Compound 570]")
"4.52 to 5.52"
>>> value_measured("O=C(N[C@H]1CCC[C@H]2CC[C@@H](C(=O)N3CC(c4cccnc4)C3)N2C1=O)c1cc2cc([C@H](F)P(=O)(O)O)ccc2s1 [Compound 870]")
"4.52 to 5.52"
>>> value_measured("O=C(N[C@H]1CCC[C@H]2CC[C@@H](C(=O)N3CC(c4cnccc4C(F)F)C3)N2C1=O)c1cc2cc(C(F)(F)P(=O)(O)O)ccc2s1 [Compound 819]")
"5.52 to 6.52"
>>> value_measured("COc1ccncc1C1CN(C(=O)[C@@H]2CC[C@@H]3CCC[C@H](NC(=O)c4cc5cc(C(F)P(=O)(O)O)ccc5s4)C(=O)N32)C1 (stereo partly shown) [Compound 206]")
"4.52 to 5.52"

====

- test-target: pY705-STAT3 in PBMC (Homo sapiens)
- Construct: Cryopreserved Peripheral Blood Mononuclear Cells (PBMC) are from AllCells; host or cells: cryopreserved PBMC
- Sequence (P40763 whole entry): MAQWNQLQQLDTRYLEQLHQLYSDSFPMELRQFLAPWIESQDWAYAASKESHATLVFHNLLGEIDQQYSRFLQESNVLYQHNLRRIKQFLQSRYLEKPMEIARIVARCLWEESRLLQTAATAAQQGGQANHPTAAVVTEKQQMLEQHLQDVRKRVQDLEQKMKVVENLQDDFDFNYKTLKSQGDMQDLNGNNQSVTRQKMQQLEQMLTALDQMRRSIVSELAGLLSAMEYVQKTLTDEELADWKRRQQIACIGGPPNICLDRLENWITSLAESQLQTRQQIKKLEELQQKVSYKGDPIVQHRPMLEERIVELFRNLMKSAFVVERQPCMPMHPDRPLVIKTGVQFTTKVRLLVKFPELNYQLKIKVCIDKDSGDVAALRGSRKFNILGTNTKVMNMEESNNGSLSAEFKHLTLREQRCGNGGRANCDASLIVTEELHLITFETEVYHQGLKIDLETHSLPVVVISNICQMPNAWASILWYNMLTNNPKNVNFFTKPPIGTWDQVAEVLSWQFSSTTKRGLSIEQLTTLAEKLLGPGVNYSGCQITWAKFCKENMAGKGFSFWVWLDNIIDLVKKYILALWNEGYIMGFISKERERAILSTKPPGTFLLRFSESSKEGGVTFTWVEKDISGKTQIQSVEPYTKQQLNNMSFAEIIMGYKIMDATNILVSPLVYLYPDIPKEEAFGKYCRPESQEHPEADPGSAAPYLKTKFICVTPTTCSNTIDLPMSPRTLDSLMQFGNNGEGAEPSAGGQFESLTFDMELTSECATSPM
- assay-protocol: MSD-pSTAT-PBMC Assay (pSTAT3, IL-6 stimulated)
- Assay type: cell-based
- measurement-context: PBMC, compound 3 hrs, then 10 ng/mL IL-6 for 10 min; Table 115; read-out: STAT3
- Experimental: Cryopreserved Peripheral Blood Mononuclear Cells (PBMC) are from AllCells. Recombinant Human IL-4 and IL-6 are from Peprotech. […] Cyropreserved PBMCs were thawed out and allowed to recover overnight in IMDM+10% heat-inactivated FBS prior to plating 50,000 (STAT3) or 25,000 (STAT6) cells per well in 96-well U-bottom tissue culture plates. […] Assay plates were then washed and 150 μL of 1× Read Buffer-T (MSD) was added to each well prior to reading on an SQ120 MSD Plate Reader. […]
pIC50: −log10 of the molar value.
pIC50 reference
metric: pIC50

>>> value_measured("CCCOC(=O)[C@H](C)NP(=O)(Cc1ccc2sc(C(=O)N[C@H]3CC[C@H](C)C[C@H]4CC[C@@H](C(=O)N5CC(c6cnccc6C)C5)N4C3=O)cc2c1)Oc1ccccc1 (stereo partly shown) [Compound 286]")
"> 7.00"
>>> value_measured("COC1(c2cnccc2C)CN(C(=O)[C@@H]2CC[C@@H]3CCC[C@H](NC(=O)c4cc5cc(C(F)(F)P(=O)(OCCSC(=O)CC(C)C)OCCSC(=O)CC(C)C)ccc5s4)C(=O)N32)C1 [Compound 963]")
"6.00 to 7.00"
>>> value_measured("COC[C@H](NP(=O)(Cc1ccc2sc(C(=O)N[C@H]3CCC[C@H]4CC[C@@H](C(=O)N5CC(c6cccnc6)C5)N4C3=O)cc2c1)Oc1ccccc1)C(=O)OCC(C)C (stereo partly shown) [Compound 945]")
"6.00 to 7.00"
>>> value_measured("CCCOC(=O)[C@H](C)NP(=O)(Cc1ccc2sc(C(=O)N[C@H]3CCC[C@H]4CC[C@@H](C(=O)N[C@H]5CN(C(C)=O)C[C@H]5F)N4C3=O)cc2c1)Oc1ccccc1 (stereo partly shown) [Compound 309]")
"< 5.52"
>>> value_measured("CC(C)CC(=O)SCCOP(=O)(OCCSC(=O)CC(C)C)C(F)(F)c1ccc2ccc(C(=O)N[C@H]3CCCC[C@H]4CC[C@@H](C(=O)N5CC(n6ccnn6)[C@H](O)C5)N4C3=O)cc2c1 (relative stereo) [Compound 1086]")
"> 7.00"
>>> value_measured("CCCOC(=O)[C@H](C)NP(=O)(Cc1ccc2sc(C(=O)N[C@H]3CCC[C@H]4CC[C@@H](C(=O)N5CC(c6cncnc6N(C)C)C5)N4C3=O)cc2c1)Oc1ccccc1 (stereo partly shown) [Compound 1070]")
"> 7.00"
>>> value_measured("CCCOC(=O)[C@H](C)NP(=O)(Cc1ccc2sc(C(=O)N[C@H]3CCCC[C@H]4CC[C@@H](C(=O)NCc5cnc6[nH]cnc6c5)N4C3=O)cc2c1)Oc1ccccc1 (stereo partly shown) [Compound 280]")
"> 7.00"
>>> value_measured("CC(C)OC(=O)OCOP(=O)(Cc1ccc2[nH]c(C(=O)N[C@H]3CCC[C@H]4CC[C@@H](C(=O)N5CC(c6cccnc6)C5)N4C3=O)cc2c1)OCOC(=O)OC(C)C [Compound 965]")
"6.00 to 7.00"
>>> value_measured("COCCC(=O)SCCOP(=O)(OCCSC(=O)CCOC)C(F)(F)c1ccc2sc(C(=O)N[C@H]3CCC[C@H]4CC[C@@H](C(=O)N5CC(c6cccnc6)C5)N4C3=O)cc2c1 [Compound 1106]")
"> 7.00"
>>> value_measured("CCCOC(=O)[C@H](C)NP(=O)(Oc1ccccc1)[C@@H](F)c1ccc2sc(C(=O)N[C@H]3CCCC[C@H]4CC[C@@H](C(=O)N5C[C@@H](C#N)[C@H](c6ccccc6)C5)N4C3=O)cc2c1 (single isomer, unassigned) [Compound 343]")
"< 5.52"
>>> value_measured("CC(C)CC(=O)SCCOP(=O)(OCOC(=O)OC1CCOCC1)C(F)(F)c1ccc2sc(C(=O)N[C@H]3CCCC[C@H]4CC[C@@H](C(=O)N5C[C@H](c6cc[nH]c(=O)c6)[C@@H](C#N)C5)N4C3=O)cc2c1 (single isomer, unassigned) [Compound 1085]")
"6.00 to 7.00"
>>> value_measured("CCCOC(=O)[C@H](C)NP(=O)(Oc1ccccc1)C(F)c1ccc2sc(C(=O)N[C@H]3CCC[C@H]4CC[C@@H](C(=O)N5CC(c6cnccc6C#N)C5)N4C3=O)cc2c1 (stereo partly shown) [Compound 273]")
"6.00 to 7.00"
>>> value_measured("CCOC(=O)[C@H](Cc1ccccc1)NP(=O)(Cc1ccc2sc(C(=O)N[C@H]3CCC[C@H]4CC[C@@H](C(=O)N5CC(c6cccnc6)C5)N4C3=O)cc2c1)Oc1ccccc1 (stereo partly shown) [Compound 389]")
"6.00 to 7.00"
>>> value_measured("COC1(c2cccnc2)CN(C(=O)[C@@H]2CC[C@@H]3CCCC[C@H](NC(=O)c4cc5cc(CP(=O)(N[C@@H](C)C(=O)OCC(C)C)Oc6ccccc6)ccc5s4)C(=O)N32)C1 (stereo partly shown) [Compound 281]")
"> 7.00"
>>> value_measured("CC(C)C[C@H](NP(=O)(Cc1ccc2sc(C(=O)N[C@H]3CCC[C@H]4CC[C@@H](C(=O)N5CC(c6cccnc6)C5)N4C3=O)cc2c1)Oc1ccccc1)C(=O)OCc1ccccc1 (stereo partly shown) [Compound 390]")
"6.00 to 7.00"
>>> value_measured("CCCOC(=O)[C@H](CC)NP(=O)(Cc1ccc2sc(C(=O)N[C@H]3CCC[C@H]4CC[C@@H](C(=O)N5CC(c6cccnc6)C5)N4C3=O)cc2c1)Oc1ccccc1 (stereo partly shown) [Compound 296]")
"> 7.00"
>>> value_measured("CCCOC(=O)[C@H](C)NP(=O)(Oc1ccccc1)C(F)c1ccc2sc(C(=O)N[C@H]3CCCC[C@H]4CC[C@@H](C(=O)N5CC(NCC(F)F)(c6ccccn6)C5)N4C3=O)cc2c1 (stereo partly shown) [Compound 1020]")
"> 7.00"
>>> value_measured("CCCOC(=O)[C@H](C)NP(=O)(Cc1ccc2sc(C(=O)N[C@H]3CCC[C@H]4CC[C@@H](C(=O)N5CC(c6nccc(C#N)n6)C5)N4C3=O)cc2c1)Oc1ccccc1 (stereo partly shown) [Compound 290]")
"6.00 to 7.00"
>>> value_measured("O=C(SCCOP(=O)(OCCSC(=O)c1ccccc1)C(F)(F)c1ccc2sc(C(=O)N[C@H]3CCC[C@H]4CC[C@@H](C(=O)N5CC(c6cccnc6)C5)N4C3=O)cc2c1)c1ccccc1 [Compound 970]")
"> 7.00"
